B1: tRNA (parent)
chain: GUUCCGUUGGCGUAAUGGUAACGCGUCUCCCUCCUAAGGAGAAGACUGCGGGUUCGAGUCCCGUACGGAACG

Variants of: B1
Test: yeast fitness relative to wild type (ratio to wild type); higher = fitter; tRNA-Arg(CCU), competitive growth, 37 C, YPD
Variants at the floor of the assay were thinned out.
I'd appreciate it if you could supply yeast fitness values for the items below.
Answers are plain numbers.

Here is how some variants turned out for yeast fitness.
GUUCCGUUGGCGUAAUGGUAACGCGUCUCCCUCCUAAGGAGAUGACUGCGGGUUCGAGUCCCAUACGGAACG [A43U G63A] :: 0.895
GUUCCGUUGGCGUAAUGGUAACGUGUCUCCCUCCUAAGGCGAAGACUGCGGGUUCGAGUCCCGUACGCAACG [C24U A40C G68C] :: 0.502
GUUCCGUUGGCGUAAUGGUAAACCGUCUCCCUCCUAAGGAGAAGACUGCGGGUUCGAGUCCCGUACGGAACG [C22A G23C] :: 0.535
GUUCCGUUGGCGUAAUGGUAACGCGUCUCCCUCCUAGGAAGAAGACUGCGGGUUCGAGUCCCGUACGGAACG [A37G G39A] :: 0.638
GUUCCGUUGGCGUAAUGGUAACGCGUCUCCCUCCUAAGGUGAAGACUGCGGGUUCGAGUCCCGUACAGACCG [A40U G67A A70C] :: 0.572

For every item in the list below, what is its measured yeast fitness?
1. GUUCCGUUGGCGUAACGGUAACGCGUCUCCCUCCUAAGGAGAAGACUGCAGGUUCGAGUCCCGUACGGAACG [U16C G50A]
2. GUUCCGUUGGCCUAAUGGUAACGCGUUUCCCUCCUAAGGAGAAGACUGCGGGUUCGAGUCCCGUACGGUACG [G12C C27U A69U]
3. GUUCCGUUGGCGUAAUGGUAAAGCGUCUACCUCCUAAGGAGAAGACUGCGGGUUCGAGUCCCGUACGGAACG [C22A C29A]
4. GUUCCGUUGGCGUAACGGUAACGCGUCUCCCUCCUAAGGAGAGGACUGCGGGUUCGAGUCCCGUACGGAACG [U16C A43G]
5. GUUCCGUUGGCGUAAUGGUAACGCGUCUCCCUCUUAAGGAGAAGACUGUGGGUUCGAGUCCCGUACGGUACG [C34U C49U A69U]

# output
[0.799, 0.599, 0.636, 1.13, 0.607]
